The entries below are paired with their reported TGI.
- Tested on: MALME-3M melanoma
- EXPERIMENT: NCI tumour cell line growth inhibition, 48 h

COMPOUND	TGI
O=C1Nc2n[nH]c(=S)n2NC12c1ccccc1-c1ccccc12	> 100 µM
CCCC1(N2C(=O)c3ccc4c5c(ccc(c35)C2=O)N(C2(CCC)CCCCC2)C4=O)CCCCC1	> 100 µM
COc1ccc(C(=O)/C=C/c2c(C(F)(F)F)nc3ccccn23)cc1OC	> 100 µM
CCCCCC1CC=CC(NC(=O)OCc2ccccc2)C1/C=C/CCCC1OCCO1 (stereo unspecified)	> 100 µM
COc1ccc(-c2nsc3c2NC(=O)CC3c2cccc(F)c2)cc1 (stereo unspecified)	> 100 µM
Cc1c2c(n3c(nc4ccccc43)c1C#N)NCC2	> 10 µM
